- procedure details: Cytotoxicity assay in Vero E6 cells (Hoechst 33342 / Sytox orange imaging)
- condition set: African green monkey
assay endpoint: viability at 30 h, 0.5 µM (%)
Enter your answer as a number in %; do not include the unit.

Value of viability at 30 h, 0.5 µM reported for the compound OC(c1cc(C(F)(F)F)nc2c(C(F)(F)F)cccc12)C1CCCCN1 (stereo not shown) [Mefloquine] is 93.2

* * *

- procedure details: in vitro
- condition set: human
assay endpoint: cytotoxicity

{"smiles string": "CC(C)CN(C[C@@H](O)[C@H](Cc1ccccc1)NC(=O)O[C@H]1CO[C@H]2OCC[C@H]21)S(=O)(=O)c1ccc(N)cc1", "result": "-14.4 to 97.2%"}

// below: cytotoxicity requested for another molecule
Value of cytotoxicity reported for the molecule C[C@@H]1O[C@@H](OC[C@H]2O[C@@H](Oc3c(-c4ccc(O)c(O)c4)oc4cc(O)cc(O)c4c3=O)[C@H](O)[C@@H](O)[C@@H]2O)[C@H](O)[C@H](O)[C@H]1O is -5.9 to 89.5%

* * *

- procedure details: in vitro
- condition set: human, MRC-5 cells (human lung fibroblasts), uninfected
assay endpoint: cytotoxicity at 6 days

These recorded examples may help you get a feel for the data.
{"compound": "Cc1cc2nc3c(=O)[nH]c(=O)nc-3n(C[C@H](O)[C@H](O)[C@H](O)COP(=O)(O)OP(=O)(O)OC[C@H]3O[C@@H](n4cnc5c(N)ncnc54)[C@H](O)[C@@H]3O)c2cc1C [FAD, Flavin adenine dinucleotide]", "result": "-10.5 to 12.7%"}
{"compound": "CC(C)c1nc(CN(C)C(=O)N[C@H](C(=O)N[C@@H](Cc2ccccc2)C[C@H](O)[C@H](Cc2ccccc2)NC(=O)OCc2cncs2)C(C)C)cs1 [Ritonavir]", "result": "20.6 to 100%"}
{"compound": "OC(c1cc(C(F)(F)F)nc2c(C(F)(F)F)cccc12)C1CCCCN1 (stereo not shown) [Mefloquine]", "result": "11.5 to 93.2%"}

// below: cytotoxicity at 6 days requested for another compound
Value of cytotoxicity at 6 days reported for the compound OC[C@@H](O)[C@@H](O[C@@H]1O[C@H](CO)[C@H](O)[C@H](O)[C@H]1O)[C@H](O)[C@@H](O)CO [Lactitol] is -8.9 to 1.8%

* * *

Listed molecules paired with reported % Reduction in Viral Load (Range)
- Test system: HCoV-229E
- procedure details: qRT-PCR viral load in supernatants of HCoV-229E-infected MRC-5 cells
- Format: cell-based, Human Coronavirus strain 229E
- condition set: HCoV-229E-infected MRC-5, 6 days, range over the assay conc. range

{"molecule": "Cc1cccc(C)c1OCC(=O)N[C@@H](Cc1ccccc1)[C@@H](O)C[C@H](Cc1ccccc1)NC(=O)[C@H](C(C)C)N1CCCNC1=O", "% Reduction in Viral Load (Range)": "+96.2 to +29.1%"}

Value of % Reduction in Viral Load (Range) reported for the molecule OC(c1cc(C(F)(F)F)nc2c(C(F)(F)F)cccc12)C1CCCCN1 (stereo not drawn) is +84.7 to +38.4%
